system: CAKI-1; experiment: NCI tumour cell line growth inhibition, 48 h
Active and inactive are the calls of the source. No stated cut-off is given here; in the data, active = GI50 up to about 1.1 µM and inactive = higher.

Molecule | Test target | GI50
COc1ccc(/N=N/c2c(O)ccc3ccccc23)cc1 | CAKI-1 | > 100 µM (inactive)
Nc1nc2cc(COc3ccc(C(=O)O)cc3)ccc2nc1-c1ccccc1 | CAKI-1 | > 10 µM (inactive)
CSc1nc(NC2OC(COC(C)=O)C(OC(C)=O)C(OC(C)=O)C2OC(C)=O)c(/N=C\C=N/c2c(NC3OC(COC(C)=O)C(OC(C)=O)C(OC(C)=O)C3OC(C)=O)nc(SC)n(C)c2=O)c(=O)n1C (centres undefined) | CAKI-1 | > 7.23 µM (inactive)
O=C1NC(=O)C2C(=O)NC(=O)C1C2(c1ccccc1)c1cc[nH]c1 (centres undefined) | CAKI-1 | > 100 µM (inactive)

###

tested on: SR; experiment: NCI tumour cell line growth inhibition, 48 h
Active and inactive are the calls of the source. Rule as the data show it: active = GI50 up to about 1.1 µM and inactive = higher.
Classes used: T for active, F for inactive

Compound | Test target | Discrete label
Cc1ccc2c(=O)cc(-c3cccc(F)c3)[nH]c2n1 | SR | T
C=CCN1C(=O)C/C(=C2/CCC(=O)N2CC=C)C1=O | SR | F
CCCN1C(=O)/C(=C\c2ccc(OC)c(OC)c2)S/C1=N\c1ccccc1 | SR | F
CCCCCCCCCCCC(=O)OCC1OC(n2cc(F)c(=O)[nH]c2=O)C(NC(=O)OCc2ccccc2)C(O)C1O (centres undefined) | SR | F
C=C1CC[C@@]2(OC1)OC1C[C@H]3[C@@H]4CC=C5C[C@@H](O)CC(OC6OCC(OC(=O)[C@@H](O)[C@@H](C)CC)C(OC(C)=O)C6OC6OC(C)C(O)C(O)C6O)[C@]5(C)[C@H]4CC[C@]3(C)C1[C@@H]2C (some centres undefined) | SR | F
Nc1nc(CCl)nc(N2CCOCC2)n1 | SR | F
COc1ccc2c3c(c4cc(OC)c(OC)cc4c2c1)CN1CCC[C@H]1[C@@H]3O | SR | T
COC(=O)C12CCC(CC1=O)C2(C)C (centres undefined) | SR | F
O=C1CC(Cl)c2c1csc2Br (centres undefined) | SR | F

###

Overview of reported GI50 across a group of molecules:
system: SNB-75; test: NCI tumour cell line growth inhibition, 48 h
The source made the active and inactive calls. Rule as the data show it: active = GI50 up to about 1.1 µM and inactive = higher. Where a SMILES comes first, the peptide text is derived from it. [ ]: non-standard residue; d: D form. The star is where a group is joined. ξ: configuration not given here. ξPhe(4-NO2) = NC(Cc1ccc([N+](=O)[O-])cc1)C(=O)O; Boc = CC(C)(C)OC(=O)*; OBn = c1ccc(CO*)cc1

Molecule | GI50
CC(C)(C)OC(=O)NC(Cc1ccc([N+](=O)[O-])cc1)C(=O)NCC(=O)OCc1ccccc1 (stereo not drawn) (Boc-[ξPhe(4-NO2)]-Gly-OBn) | 18.4 µM (inactive)
C/C(=N\NC(=S)NC(C)(C)C)c1nc2cccnc2[nH]1 | 16.3 µM (inactive)
O=C1c2ccccc2C(=O)c2c1ccc1c2OCO1 | 23.1 µM (inactive)

###

system: SK-MEL-2; experiment: NCI tumour cell line growth inhibition, 48 h
Activity calls are given as the source filed them. Rule as the data show it: active = GI50 up to about 1.1 µM and inactive = higher.
Classes used: y for active, n for inactive

Compound | Discrete label
O=[N+]([O-])c1cccc([N+](=O)[O-])c1Cl | n
O=C(/C=C/c1ccc(-c2ccccc2)cc1)c1ccccc1 | n
Nc1nc(Cl)cc(NCC2(CO)CC(OCc3ccccc3)C2)n1 (configuration not stated) | n
CC1(C)C(N2CCOCC2)CS1(=O)=O (configuration not stated) | n
COc1ccc(N2C(=O)C3c4[nH]c5ccc(OCc6ccccc6)cc5c4C4CCC(c5ccccc5)CC4C3C2=O)cc1 (configuration not stated) | n
O=C(O)CSc1nnc2c3ccccc3c3ccccc3c2n1 | n
O=C(NN1C(=O)C(Cl)C1c1ccc([N+](=O)[O-])cc1)c1ccccc1O (configuration not stated) | n
CCCCC1C=Cn2c(=O)oc3c(OC(C)C)c(OC(C)C)c(O)c1c32 (configuration not stated) | n
c1ccc(Nc2nnc(Cn3ccc4ccccc43)s2)cc1 | n
O=C1NN(c2ccccc2)C(=O)C2C3c4ccccc4C(c4ccccc43)C12 (configuration not stated) | n
CO/N=C(\C(=O)N(C)n1cnnc1)c1csc(NC(c2ccccc2)(c2ccccc2)c2ccccc2)n1 | n
CN1OC(CO)CC12C1CC3CC(C1)CC2C3 (configuration not stated) | n
C=CCc1c(Cl)nc(Cl)nc1Cl | y
Nc1c(S(=O)(=O)O)cc2cc(S(=O)(=O)O)ccc2c1/N=N/c1ccc(-c2ccc(/N=N/c3c(N)c(S(=O)(=O)O)cc4cc(S(=O)(=O)O)ccc34)c(S(=O)(=O)O)c2)cc1 | n
[N-]=[N+]=CC(=O)OC1CCOCC1 | n
Clc1ccc2c(c1)N(CCCN1CCCC13CCCCC3)c1ccccc1S2 | n
COc1ccc(/C=C\c2cc(OC)c(O[Si](C)(C)C(C)(C)C)c(OC)c2)cc1 | n
O=C1CC[N+]2=Cc3ccccc3O[B-]2(c2ccccc2)O1 (configuration not stated) | n
CC(=O)C1(c2ccccc2)CCN(Cn2sc3nc(C)cc(C)c3c2=O)CC1 | n
COc1ccc(-c2nc3cc(F)ccc3s2)cc1O | n
CCOC(=O)NC(N(C)C(C(C)C)P(=O)(OCC)OCC)(C(F)(F)F)C(F)(F)F (configuration not stated) | n
CN(CCc1ccc(Cl)c(Cl)c1)[C@H]1CCCC[C@H]1N1CCCC1 | n

Measured values drawn from ChEMBL document CHEMBL1201862 for this set.
